Where do the numbers come from? From PubChem BioAssay (NCI).

Exercise: state measured TGI for each of the molecules provided.
# Test system: HT29 colon
# protocol_description: NCI tumour cell line growth inhibition, 48 h
Numeric answer only, unit µM assumed.

Request: Look at this molecule and give its reported TGI. CC(=O)OCC1OC([Se-])C(OC(C)=O)C(OC(C)=O)C1OC(C)=O.N#CCC[PH+](CCC#N)CCC#N.[Au+] (stereo not given)
Response: 39.7

Request: And what about the molecule C=CC(OC(=O)C(C)C)c1ccc(OC(=O)C(C)C)cc1 (stereo not given) ?
Response: 26.3

Request: And what about the molecule O=C(O)C1=CN(c2ccncc2)C(c2ccco2)=CC1c1ccccc1[N+](=O)[O-] (stereo not given) ?
Response: 6.18

Request: And what about the molecule CC(=O)Oc1c(Br)ccc2cc(C(Br)Br)c(C(=O)c3ccccc3)nc12 ?
Response: 40.1

Request: And what about the molecule C=C(CN1CCN(c2ccccc2C(F)(F)F)CC1)c1ccc(C(=O)Nc2ccccc2N)cc1 ?
Response: 20.2

====

# System: SK-OV-3 ovarian
# protocol_description: NCI tumour cell line growth inhibition, 48 h
Exercise: state measured TGI for each of the compounds provided.

Request: Look at this compound and give its reported TGI. Cc1cc(=O)oc2cc(OC(=O)Nc3ccccc3)ccc12
Response: > 100 µM

Request: And what about the compound CCCCCCCC(CC(=O)NC(CO)C(=O)NC(CO)CC(C)C)OC(=O)CC(CCCCCCC)OC(=O)CC(CCCCCCC)OC1OC(C)C(O)C(OC2OC(C)C(O)C(O)C2O)C1O (stereo not given) ?
Response: 31.5 µM

Request: And what about the compound O=c1nc2c(c(-c3ccc(F)cc3)[nH]1)COC/C2=C\c1ccc(F)cc1 ?
Response: > 100 µM

Request: And what about the compound CN(C)CCN(C)C(=O)C1CCCN1C(=O)OCc1ccccc1 (stereo not given) ?
Response: > 100 µM

Request: And what about the compound O=C(Cc1ccc(Nc2ccnc(C(F)(F)F)c2)cc1)N/N=C/c1ccccc1O ?
Response: > 68.5 µM

Request: And what about the compound CCC(C)CC(C)C(=O)c1c(O)ccn(O)c1=O (stereo not given) ?
Response: > 100 µM

Request: And what about the compound C/C(=N\O)C1CC2C=C(C#N)C1N(Cc1ccccc1)C2 (stereo not given) ?
Response: > 100 µM

Request: And what about the compound O=C1NC(=O)C(c2ccccc2)=C1Nc1ccccc1 ?
Response: > 25 µM

Request: And what about the compound CC(C)CC(NC=O)C(=O)NC(Cc1ccccc1)NC(=O)CNC(=O)C(C)NC(=O)C(N)Cc1ccc(O)cc1 (stereo not given) ?
Response: > 100 µM

Request: And what about the compound COc1ccccc1N1C(=O)CSC1c1cc(OC)c(OC)c(OC)c1 (stereo not given) ?
Response: > 100 µM

Request: And what about the compound O=C1C=CC(=O)c2cc(Sc3ccccc3)c(=O)c(Sc3ccccc3)cc21 ?
Response: > 100 µM

Request: And what about the compound COc1cc(/C=C/C(=O)c2c(C)nc3ccccc3c2C)ccc1OCCCCOc1cc2c(cc1OC)C(=O)N1CCC[C@H]1C=N2 ?
Response: 3.08 µM

Request: And what about the compound CN1CC=C(c2cccn2C)CC1 ?
Response: > 100 µM

Request: And what about the compound O=C(Cc1ccccc1)N/N=C(/c1nc2ccc([N+](=O)[O-])cc2[nH]c1=O)C(O)c1ccc(C(O)/C(=N/NC(=O)Cc2ccccc2)c2nc3ccc([N+](=O)[O-])cc3[nH]c2=O)cc1 (stereo not given) ?
Response: > 100 µM

Request: And what about the compound CCC(C)(C)[C@H](NC(=O)[C@H]1CCCCN1C)C(=O)N(C)[C@H](C[C@@H](OC(C)=O)c1nc(C(=O)N[C@@H](Cc2ccccc2)C[C@H](C)C(=O)O)cs1)C(C)C ?
Response: > 16.7 µM

Request: And what about the compound O=c1nc(N2CCCC2)nc(N2CCCC2)s1 ?
Response: > 100 µM

Request: And what about the compound COc1ccc(C2CC(c3ccc4ccccc4c3)=NN2c2nc(O)c(C3=c4cc(OC)ccc4=NC3=O)s2)cc1 (stereo not given) ?
Response: 0.431 µM

Request: And what about the compound O=C(Cc1ccccc1)N/N=C(/c1nc2ccc([N+](=O)[O-])cc2[nH]c1=O)C(O)c1ccccc1Cl (stereo not given) ?
Response: > 100 µM

Request: And what about the compound O=Cc1ccc(-c2ccc(-c3ccc(C=O)o3)[se]2)o1 ?
Response: > 100 µM

Request: And what about the compound Cc1ccc(SCC(CF)OC(C)n2cnc3c(Cl)nc(N)nc32)cc1 (stereo not given) ?
Response: > 100 µM

====

Exercise: state measured TGI for each of the molecules provided.
# Test system: KM12 colon
# protocol_description: NCI tumour cell line growth inhibition, 48 h

Request: Look at this molecule and give its reported TGI. COC(=O)CC(CNC(=O)OCc1ccccc1)OCc1ccc(OC)cc1 (stereo unspecified)
Response: > 100 µM

Request: And what about the molecule N#Cc1c2ccccc2c2nnc3ccc(C(F)(F)F)cc3n12 ?
Response: > 100 µM

Request: And what about the molecule O=C1C=CC(=O)c2cc(Sc3ccccc3)c(=O)c(Sc3ccccc3)cc21 ?
Response: > 100 µM

Request: And what about the molecule CC1=NC=C(O)c2ccccc2O1 ?
Response: > 100 µM

Request: And what about the molecule O=[N+]([O-])c1ccc(CN=C2NNS(=O)(=O)c3ccccc32)cc1 ?
Response: > 100 µM

Request: And what about the molecule COC(=O)[C@@H](OC(C)=O)[C@@H](OC(C)=O)c1nnc2ccc(Cl)nn12 ?
Response: > 100 µM

Request: And what about the molecule COc1ccc2c(c1)-c1nc(=O)n(CCCN(C)C)c3ccc([N+](=O)[O-])c(c13)N2 ?
Response: 4.02 µM

Request: And what about the molecule CC(=O)SC(SC(C)=O)SC(C)=O ?
Response: > 100 µM

Request: And what about the molecule NC(CO)c1ccc(OCc2ccccc2)cc1 (stereo unspecified) ?
Response: > 100 µM

Request: And what about the molecule CCC(c1ccc(OC)cc1)C1NC(=S)NC1=O (stereo unspecified) ?
Response: > 50 µM

Request: And what about the molecule COc1cc2cc3c4cc(OC)c(OC)cc4cc[n+]3c(C)c2cc1OC ?
Response: > 100 µM

====

# Tested on: HT29 colon
# protocol_description: NCI tumour cell line growth inhibition, 48 h; in the data active = GI50 below about 0.43 µM; inactive = the rest
// allowed return values: 1.0 = active, 0.0 = inactive

Request: Per the assay record, what outcome was assigned to COc1ccc(C2CC(c3ccc4ccccc4c3)=NN2c2nc(O)c(C3=c4cc(OC)ccc4=NC3=O)s2)cc1 (stereo unspecified) ?
Response: 1.0

Request: And what about the molecule CCC(C)CC(C)C(=O)c1c(O)ccn(O)c1=O (stereo unspecified) ?
Response: 0.0

Request: And what about the molecule O=C1/C(=C\c2ccccc2)CN(C(=O)c2ccccc2)C/C1=C\c1ccccc1 ?
Response: 0.0

Request: And what about the molecule CCCCN(CC)CCCCCCCCCCN1CCCc2cc(OC)ccc21 ?
Response: 0.0

Request: And what about the molecule FC(F)(F)c1ccc(-c2ncc(-c3ccc(C(F)(F)F)cc3)c(NCc3cc(C(F)(F)F)cc(C(F)(F)F)c3)n2)cc1 ?
Response: 0.0

Request: And what about the molecule CCOc1cc(/C=C/C(=O)C(C(=O)/C=C/c2ccc(OC(=O)CNc3nnc(C)s3)c(OCC)c2)C(=O)CNc2nnc(C)s2)ccc1OC(=O)CNc1nnc(C)s1 ?
Response: 0.0

Request: And what about the molecule O=Cc1ccc(-c2ccc(-c3ccc(C=O)o3)[se]2)o1 ?
Response: 0.0

Request: And what about the molecule CCCOc1ccc(/C=N/Nc2cc(C)nc3ccc(Cl)cc23)cc1 ?
Response: 0.0

Request: And what about the molecule Brc1ccc(Nc2nc3ccccc3nc2Nc2ccc(Br)cc2)cc1 ?
Response: 1.0

Request: And what about the molecule O=C1c2cccnc2C(=O)c2c1c(C(=O)OCCc1ccccn1)c1ccccn21 ?
Response: 0.0

Request: And what about the molecule CC(C)OCc1cc(CN2CCN(c3cccc(Cl)c3)CC2)c(O)c2ncccc12 ?
Response: 0.0

====

# System: CCRF-CEM leukemia
# protocol_description: NCI tumour cell line growth inhibition, 48 h
Exercise: state measured log10 of TGI for each of the compounds provided.
Would you kindly interpret these values as log10 of TGI expressed in µM?

Request: Provide value of log10 of TGI for this record tested with CCRF-CEM leukemia: O=C(Nc1ccc(I)cc1)c1cccc([N+](=O)[O-])c1O
Response: 1.47

Request: And what about the compound CCCCCCCc1cscc1-c1cscc1Br ?
Response: 1.61

Request: And what about the compound CC(C)(CN1CCCCC1)C(=O)CC(SCCN)c1ccc(Cl)cc1 (stereo not given) ?
Response: 0.72

Request: And what about the compound CCN(CC)C(=S)N/N=C/c1cc(OC)ccc1O ?
Response: 0.76

Request: And what about the compound Cc1ccc(S(=O)(=O)ON2C(=O)c3c(N)c(C#N)c(-c4ccccc4)c(-c4ccccc4)c3C2=O)cc1 ?
Response: 1.43

Request: And what about the compound O=C1Oc2cc3c(c4cccc1c24)OCN(c1ccccc1)C3 ?
Response: 1.94

Request: And what about the compound CN(C)CCN(C)C(=O)C1CCCN1C(=O)OCc1ccccc1 (stereo not given) ?
Response: 1.69
